# Target system: Pantothenate synthetase (Mycobacterium tuberculosis (strain ATCC 25618 / H37Rv))
# Test method notes: Coupled enzyme confirmation of inhibitors against recombinant Mtb PanC (AID 375);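 also: 0% = full reaction with vehicle and 100% = no enzyme background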
# Study conditions: coupled enzyme assay; at 10 µM, hits give high values
Recorded metric: inhibition (%)

INSERT INTO assay_data (compound, target_system, recorded_metric, reading) VALUES
  ('CCNc1oc(COc2ccccc2F)nc1C#N', 'Pantothenate synthetase (Mycobacterium tuberculosis (strain ATCC 25618 / H37Rv))', 'inhibition', 9),
  ('COc1ccc(-n2ncc3c(N4CCN(c5cccc(C)c5C)CC4)ncnc32)cc1', 'Pantothenate synthetase (Mycobacterium tuberculosis (strain ATCC 25618 / H37Rv))', 'inhibition', 0),
  ('C/C(Cl)=C\Cn1c(Nc2ccc(C)cc2)nc2c1c(=O)n(C)c(=O)n2C', 'Pantothenate synthetase (Mycobacterium tuberculosis (strain ATCC 25618 / H37Rv))', 'inhibition', 3),
  ('NS(=O)(=O)c1cc2c(cc1Cl)NC=NS2(=O)=O', 'Pantothenate synthetase (Mycobacterium tuberculosis (strain ATCC 25618 / H37Rv))', 'inhibition', 3),
  ('CCOC(=O)c1cccc(NC(=O)CSc2nnc(-c3ccoc3C)n2CCOC)c1', 'Pantothenate synthetase (Mycobacterium tuberculosis (strain ATCC 25618 / H37Rv))', 'inhibition', 1),
  ('CCNc1nc(NCC)n2c(SCc3nc4ccccc4c(=O)[nH]3)nnc2n1', 'Pantothenate synthetase (Mycobacterium tuberculosis (strain ATCC 25618 / H37Rv))', 'inhibition', 1),
  ('COCCN1Cc2cccc(C(=O)Nc3cccnc3)c2C1=O', 'Pantothenate synthetase (Mycobacterium tuberculosis (strain ATCC 25618 / H37Rv))', 'inhibition', 1),
  ('FC(F)(F)C(F)(F)C(F)(F)c1nnc2ccc(N3CCOCC3)nn12', 'Pantothenate synthetase (Mycobacterium tuberculosis (strain ATCC 25618 / H37Rv))', 'inhibition', 3),
  ('O=c1oc2ccccc2c2c1ncn2-c1ccccc1', 'Pantothenate synthetase (Mycobacterium tuberculosis (strain ATCC 25618 / H37Rv))', 'inhibition', 0),
  ('CCNC(=O)N1c2ccc(OCC)cc2C(C)=CC1(C)C', 'Pantothenate synthetase (Mycobacterium tuberculosis (strain ATCC 25618 / H37Rv))', 'inhibition', 0),
  ('Cc1ccc(S(=O)(=O)N2CCCC(c3nnc4n3-c3ccccc3SC4)C2)cc1 (stereo unspecified)', 'Pantothenate synthetase (Mycobacterium tuberculosis (strain ATCC 25618 / H37Rv))', 'inhibition', 9);
